Test system: NCI-H460 lung
Outcome codes: 1 for active, -1 for inactive

compound: CCCC(=O)OCC1OC(n2cnc3c(=S)nc(N)[nH]c32)C(OC(=O)CCC)C1OC(=O)CCC (stereo not given)
assayTarget: NCI-H460 lung
assignedLabel: -1

compound: C#C[C@@]1(O)[C@@H](CO)O[C@@H](n2cc(Br)c3c(N)ncnc32)[C@@H]1O
assayTarget: NCI-H460 lung
assignedLabel: 1

compound: Cc1ccc2cc3c(cc(C)c4ccccc43)c3c2c1CC3
assayTarget: NCI-H460 lung
assignedLabel: -1

compound: O=C(/C=C\Sc1ccccn1)c1cccc(Br)c1
assayTarget: NCI-H460 lung
assignedLabel: -1

compound: N#Cc1cnc(=O)n(C2CC(O)C(CO)O2)c1 (stereo not given)
assayTarget: NCI-H460 lung
assignedLabel: -1

compound: Cc1ccc(-c2nc3nc(-c4ccc(Br)cc4)nc(N4CCCNCC4)c3o2)cc1
assayTarget: NCI-H460 lung
assignedLabel: -1

compound: O=S(=O)(Nc1ccc(Cl)c(F)c1)c1ccc(-c2cnc(C3CC3)o2)cc1
assayTarget: NCI-H460 lung
assignedLabel: 1

compound: O=C1CCc2c(Oc3ccc4c(c3)[C@H]3[C@@H](O4)[C@@H]3c3nc4ccc(C(F)(F)F)cc4[nH]3)ccnc2N1
assayTarget: NCI-H460 lung
assignedLabel: -1

compound: COC(=O)C1=C(C(=O)OC)SC(=C(Cl)C(=S)Oc2ccccc2N)S1
assayTarget: NCI-H460 lung
assignedLabel: -1

compound: CCn1nc(-c2ccc(C(=O)OC)cc2)nc2c(=O)n(C)c(=O)nc1-2
assayTarget: NCI-H460 lung
assignedLabel: -1

====

Tested on: KM20L2 colon
Assay: NCI tumour cell line growth inhibition, 48 h
Quick list: TGI per entry.

compound: Cn1c(=O)nc2n(-c3cc(Cl)ccc3Cl)c3ccccc3nc-2c1=O
assayTarget: KM20L2 colon
limitQualifier: =
TGI [µM]: 7.9
//
compound: O=C(NC1C(O)C(O)C(CO)OC1n1cc(F)c(=O)[nH]c1=O)OCc1ccccc1 (stereo not given)
assayTarget: KM20L2 colon
limitQualifier: >
TGI [µM]: 100
//
compound: COc1ccc2c(c1)c1c(C)c3cnccc3c(C)c1n2CCCN
assayTarget: KM20L2 colon
limitQualifier: =
TGI [µM]: 0.685
//
compound: Cn1c(=O)nc2n(-c3cccc(Cl)c3)c3ccccc3nc-2c1=O
assayTarget: KM20L2 colon
limitQualifier: =
TGI [µM]: 23.8
//
compound: O=C(O)/C=C\C(=O)c1ccc(Cl)cc1
assayTarget: KM20L2 colon
limitQualifier: >
TGI [µM]: 74.7
//
compound: O=C(CC1(O)C(=O)Nc2ccccc21)c1ccc2ccccc2c1 (stereo not given)
assayTarget: KM20L2 colon
limitQualifier: >
TGI [µM]: 100
//
compound: C=CCN(N=O)C(=O)NCCCC(NC(C)=O)C(=O)NCc1ccccc1 (stereo not given)
assayTarget: KM20L2 colon
limitQualifier: >
TGI [µM]: 100
//
compound: CCCNC1=C(C)C(=O)C2=C(C1=O)[C@H](COC(N)=O)[C@]1(OC)[C@@H]3N[C@@H]3CN21
assayTarget: KM20L2 colon
limitQualifier: =
TGI [µM]: 121
//
compound: CC1(C)O[C@@H](CC/C=C/CO)[C@H](CC/C=C/CO)O1
assayTarget: KM20L2 colon
limitQualifier: >
TGI [µM]: 100
//
compound: O=C1C(Cl)C(c2cc(Br)ccc2O)N1n1cnc2ccccc2c1=O (stereo not given)
assayTarget: KM20L2 colon
limitQualifier: >
TGI [µM]: 100

====

Tested on: DU-145 prostate
Experiment: NCI tumour cell line growth inhibition, 48 h
endpointLabel: log10(TGI) (log10 of the value in µM)

molecule: C/C=C/C1=CN2C(=O)c3cc(OC4OC(C)C(NC)C(C)(O)C4O)c(C)cc3N=C[C@@H]2C1 (some centres not stated)
log10(TGI): 0.20
--
molecule: Cc1cc(C)c([S@@](=O)O[C@@H]2[C@H]3OC(C)(C)O[C@H]3O[C@@H]2[C@H]2COC(C)(C)O2)c(C)c1
log10(TGI): 1.95
--
molecule: COc1ccc(C2Oc3ccc(Cl)cc3C=C2[N+](=O)[O-])cc1OC (configuration not stated)
log10(TGI): 0.47
--
molecule: COc1ccc2c(c1)O/C(=C\c1ncc([N+](=O)[O-])n1C)C2=O
log10(TGI): -0.10
--
molecule: COc1ccc2c(c1)c1c(C)c3cnccc3c(C)c1n2CCCN
log10(TGI): -0.41
--
molecule: COc1ccc(/C=C/C(=O)c2ccc(Cl)cc2Cl)cc1
log10(TGI): 1.52

====

Test system: 786-0 renal
Assay: NCI tumour cell line growth inhibition, 48 h
Quick list: TGI per entry.

compound: Cc1ccc(-c2nc3nc(-c4ccc(Br)cc4)nc(N4CCCNCC4)c3o2)cc1
assayTarget: 786-0 renal
unitOfMeasurement: µM
limitQualifier: =
TGI: 16
//
compound: CC(C)(Br)C(Br)CCC1(C(Br)CBr)CO1 (stereo not given)
assayTarget: 786-0 renal
unitOfMeasurement: µM
limitQualifier: >
TGI: 10
//
compound: COc1ccc(NC(=O)NS(=O)(=O)c2ccc(C)cc2)nn1
assayTarget: 786-0 renal
unitOfMeasurement: µM
limitQualifier: >
TGI: 100
//
compound: C=CC[C@@]1(OC(C)=O)C(=O)C(=O)OC1C1COC(C)(C)O1 (stereo not given in full)
assayTarget: 786-0 renal
unitOfMeasurement: µM
limitQualifier: =
TGI: 24.6
//
compound: COc1ccc(-c2nc(N3CCCC3)no2)cc1
assayTarget: 786-0 renal
unitOfMeasurement: µM
limitQualifier: >
TGI: 100
//
compound: CCN(CC)CCNC(=O)c1cc2cc(NC(=O)c3cc4cc(N)ccc4[nH]3)ccc2[nH]1
assayTarget: 786-0 renal
unitOfMeasurement: µM
limitQualifier: >
TGI: 100
//
compound: CC1=C(Cc2ccccc2)C(Cc2ccccc2)=C(C)S1=O
assayTarget: 786-0 renal
unitOfMeasurement: µM
limitQualifier: =
TGI: 71
//
compound: Cn1c(=O)nc2n(-c3cccc(Cl)c3)c3ccccc3nc-2c1=O
assayTarget: 786-0 renal
unitOfMeasurement: µM
limitQualifier: >
TGI: 100
//
compound: COc1cc(-c2nn(-c3ccc(NC(=O)NCCNS(=O)(=O)c4ccc(F)cc4)cc3)cc2-c2ccncc2)ccc1Cl
assayTarget: 786-0 renal
unitOfMeasurement: µM
limitQualifier: =
TGI: 6.3
//
compound: O=C1C(Br)=C(C2=CC(=P(c3ccccc3)(c3ccccc3)c3ccccc3)C=C2)C(=O)C(Br)=C1C1=CC(=P(c2ccccc2)(c2ccccc2)c2ccccc2)C=C1
assayTarget: 786-0 renal
unitOfMeasurement: µM
limitQualifier: >
TGI: 100

====

Tested on: TK-10 renal
Assay: NCI tumour cell line growth inhibition, 48 h
endpointLabel: TGI (µM)

molecule: Cc1ccc(C2C3Cc4ccccc4C3=NN2c2ccc(S(=O)(=O)NC(=O)NC3CCCCC3)cc2)cc1 (stereo not given)
unitOfMeasurement: µM
limitQualifier: =
reported: 28.4

molecule: C[N+]1([O-])CCC(O)(C2CC2)CC1 (stereo not given)
unitOfMeasurement: µM
limitQualifier: >
reported: 100

molecule: COc1ccc2cc1Oc1ccc(cc1)CC1c3cc(OC)c(cc3CCN1C)Oc1c(OC)c(OC)cc3c1C(C2)N(C)CC3 (stereo not given)
unitOfMeasurement: µM
limitQualifier: =
reported: 20.6

molecule: COc1ccc([C@H]2CC(=O)C[C@H](c3ccc(OC)cc3OC)C23C(=O)c2ccccc2C3=O)c(OC)c1
unitOfMeasurement: µM
limitQualifier: >
reported: 100

molecule: CCOC(=O)C(C)c1nc2cc3cccnc3c(Cl)c2[nH]c1=O (stereo not given)
unitOfMeasurement: µM
limitQualifier: >
reported: 100

====

Test system: A549 NSCLC
Test: NCI tumour cell line growth inhibition, 48 h

compound: CC(=O)/C(=C/n1ccc(=O)[nH]c1=S)C(=O)Nc1ccccc1C
assayTarget: A549 NSCLC
TGI: > 100 µM

compound: C=CCN(N=O)C(=O)NCCCC(NC(C)=O)C(=O)NCc1ccccc1 (centres undefined)
assayTarget: A549 NSCLC
TGI: > 100 µM

compound: COc1ccc2c(c1)O/C(=C\c1ncc([N+](=O)[O-])n1C)C2=O
assayTarget: A549 NSCLC
TGI: 4.54 µM

compound: N#CCC(=O)N1CCCOCCC1
assayTarget: A549 NSCLC
TGI: > 100 µM

compound: CCN(Cc1ccccn1)c1ccc(CO)c(Cl)c1
assayTarget: A549 NSCLC
TGI: > 100 µM

compound: COc1ccc(-c2nc3c(-c4ccccc4)nc(-c4ccccc4)cn3c2-c2ccc(OC)cc2)cc1
assayTarget: A549 NSCLC
TGI: > 100 µM

compound: OCn1nc2c(C3OCCO3)cc3ccccc3n2c1=S
assayTarget: A549 NSCLC
TGI: > 100 µM

compound: C[C@@H](CO)C1=C(O)c2ccc3c(c2C(=O)C1=O)CCCC3(C)C
assayTarget: A549 NSCLC
TGI: > 100 µM

compound: O=C(CC1(O)C(=O)Nc2ccccc21)c1ccc2ccccc2c1 (centres undefined)
assayTarget: A549 NSCLC
TGI: > 100 µM

compound: CC1CCC2(OC1)OC1CC3C4CCC5CC(O)CCC5(C)C4CC(=O)OC3(C)C1C2C (centres undefined)
assayTarget: A549 NSCLC
TGI: > 100 µM

compound: Cn1c(=O)nc2n(-c3cc(Cl)ccc3Cl)c3ccccc3nc-2c1=O
assayTarget: A549 NSCLC
TGI: 21.9 µM

compound: O=C(c1cccc(F)c1F)N1CCc2c([nH]c3ccccc23)C1c1ccc2c(c1)OCO2 (centres undefined)
assayTarget: A549 NSCLC
TGI: 72.5 µM

compound: COc1ccc2c(c1)N=C(N)n1c(nc3ccccc31)S2
assayTarget: A549 NSCLC
TGI: > 100 µM

compound: COc1cc(COC(=O)N2CSCC2C(=O)O)c([N+](=O)[O-])cc1OC (centres undefined)
assayTarget: A549 NSCLC
TGI: > 100 µM

compound: COC(=O)[C@]1(c2cc3ccccc3[nH]2)CC2CN(C(=O)OCc3ccccc3)C1C=C2OC (some centres undefined)
assayTarget: A549 NSCLC
TGI: > 100 µM

compound: O=C(NC1C(O)C(O)C(CO)OC1n1cc(F)c(=O)[nH]c1=O)OCc1ccccc1 (centres undefined)
assayTarget: A549 NSCLC
TGI: > 100 µM

compound: CC(=O)OC(C)(C)C1O[C@@]23OC1C[C@@H](C)[C@@H]2[C@@]1(C)CC[C@@]24C[C@@]25CC[C@H](OC2OCC(O)C(O)C2O)C(C)(C)[C@@H]5CCC4[C@]1(C)[C@H]3O (some centres undefined)
assayTarget: A549 NSCLC
TGI: 21.4 µM

compound: O=C(O)c1cccc(SSc2cccc(C(=O)O)c2)c1
assayTarget: A549 NSCLC
TGI: > 100 µM

compound: Fc1cccc(F)c1C1SCc2nc3cc4ccccc4cc3n21 (centres undefined)
assayTarget: A549 NSCLC
TGI: > 100 µM

compound: COc1ccc([C@H]2CC(=O)C[C@H](c3ccc(OC)cc3OC)C23C(=O)c2ccccc2C3=O)c(OC)c1
assayTarget: A549 NSCLC
TGI: > 100 µM

compound: Cn1c(=O)nc2n(-c3cccc(Cl)c3)c3ccccc3nc-2c1=O
assayTarget: A549 NSCLC
TGI: 33 µM

compound: CCn1c(=O)nc2n(-c3ccccc3)c3ccccc3nc-2c1=O
assayTarget: A549 NSCLC
TGI: > 100 µM

compound: COc1ccc(OC)c(/C=C/C(=O)N/N=C/c2ccccc2)c1
assayTarget: A549 NSCLC
TGI: > 100 µM

compound: COC(=O)c1c(C)c2n(c1C)C(=O)C(c1ccccc1)=C2
assayTarget: A549 NSCLC
TGI: > 100 µM
